B1: library; numbered along this chain (parent)
chain: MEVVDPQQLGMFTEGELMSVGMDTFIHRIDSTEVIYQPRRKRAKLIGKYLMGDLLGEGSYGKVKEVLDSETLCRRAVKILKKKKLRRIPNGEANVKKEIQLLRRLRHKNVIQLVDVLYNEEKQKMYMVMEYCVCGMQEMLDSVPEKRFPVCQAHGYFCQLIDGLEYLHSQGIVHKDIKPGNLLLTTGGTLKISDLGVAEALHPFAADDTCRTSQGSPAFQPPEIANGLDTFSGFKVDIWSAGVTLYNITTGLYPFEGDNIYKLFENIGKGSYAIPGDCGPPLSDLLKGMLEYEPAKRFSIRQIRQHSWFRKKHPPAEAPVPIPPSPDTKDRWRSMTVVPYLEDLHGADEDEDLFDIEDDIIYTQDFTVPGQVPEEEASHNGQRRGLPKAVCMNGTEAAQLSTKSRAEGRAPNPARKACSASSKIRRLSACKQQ

Variants of: B1
Method notes: STK11 functional score (HeLa growth suppression), rescaled enrichment; synonymous median = 1, nonsense median = 0 (normalised score)
Run parameters: with HeLa; variant type: missense
Measured STK11 functional score of individual entries
# answer = number (no unit)

These solved cases illustrate the format of a correct answer.
C430W: 1.02
V243C: 1
I111M: 0.886
E357C: 1.36
S422Y: 1.54

## Task So what does the record say about STK11 functional score for F354W ?
## Result 0.138

## Task So what does the record say about STK11 functional score for K81V ?
## Result 0.987

## Task So what does the record say about STK11 functional score for T230A ?
## Result 0.88

## Task So what does the record say about STK11 functional score for I322M ?
## Result 0.829

## Task So what does the record say about STK11 functional score for G381K ?
## Result 1.59

## Task So what does the record say about STK11 functional score for S325N ?
## Result 1.47

## Task So what does the record say about STK11 functional score for Y362P ?
## Result 1.58

## Task So what does the record say about STK11 functional score for S283E ?
## Result 0.826

## Task So what does the record say about STK11 functional score for P315A ?
## Result 1.07

## Task So what does the record say about STK11 functional score for M392N ?
## Result 0.559

## Task So what does the record say about STK11 functional score for K178V ?
## Result 0.434
